# reported CC50 (concentration to cause poisoning in half cells); entries follow
Tested on: 2.2.15 cells
EXPERIMENTAL_PROTOCOL: Drug TC50 by MTT detection
Assay type: cell-based
CONDITIONS_USED: Reed-Muench

Examples with their reported CC50 (concentration to cause poisoning in half cells) follow.
COMPOUND | TARGET_OR_SYSTEM | TEST_VALUE
O=C(O)CCCC1C2CCCN3CCCC(CN1Cc1ccc(Cl)cc1)C23 (stereo not shown) [DM-126, N-(4-chlorobenzyl) matrinic acid] | 2.2.15 cells | >1000 µg/mL
O=C(O)CCCC1C2CCCN3CCCC(CN1Cc1cccc4ccccc14)C23 (stereo not shown) [DM-148, N-(naphthyl-1-yl) methyl matrinic acid] | 2.2.15 cells | 529.86 µg/mL
O=C(O)CCC[C@@H]1[C@H]2CCCN3CCC[C@@H](CN1Cc1cscn1)[C@@H]23 [DM-146, N-(thiazol-4-yl)methyl matrinic acid] | 2.2.15 cells | >1000 µg/mL

Form field CC50 (concentration to cause poisoning in half cells) for item Cc1cccc(CN2CC3CCCN4CCCC(C2CCCC(=O)O)C34)c1 (stereo not shown) [DM-139, N-(3-methylbenzyl) matrinic acid] on 2.2.15 cells: 885.1 µg/mL

Form field CC50 (concentration to cause poisoning in half cells) for item O=C(O)CCCC1C2CCCN3CCCC(CN1Cc1ccc(Br)cc1)C23 (stereo not shown) [DM-128, N-(4-bromobenzyl) matrinic acid] on 2.2.15 cells: 535.1 µg/mL

Form field CC50 (concentration to cause poisoning in half cells) for item O=C(O)CCCC1C2CCCN3CCCC(CN1Cc1cccc(Cl)c1)C23 (stereo not shown) [DM-125, N-(3-chlorobenzyl) matrinic acid] on 2.2.15 cells: >1000 µg/mL

Form field CC50 (concentration to cause poisoning in half cells) for item N#Cc1cccc(S(=O)(=O)N2CC3CCCN4CCCC(C34)C2CC=CC(=O)O)c1 (stereo not shown) [SC-89b] on 2.2.15 cells: 123.08 µg/mL

* * *

# reported melting point; entries follow

Examples with their reported melting point follow.
MOLECULE | melting point
O=C1C(O)C(O)CC2C3CCCN4CCCC(CN12)C34 (stereo not drawn) [Compound 8, 13,14-dihydroxyl matrine] | 156 to 158 °C
CC(=O)N1C[C@@H]2CCCN3CCC[C@@H](C23)C1CCCC(=O)O (stereo partly drawn) | 196.8 to 198.9 °C
O=C1CC(O)CC2C3CCCN4CCCC(CN12)C34 (stereo not drawn) [Compound 5, β-hydroxyl matrine] | 211 to 213 °C

Record COC1=CCC2C3CCCN4CCCC(CN2C1=O)C34 (stereo not drawn) . Reported melting point: 110 to 111 °C

Record CC(=O)N1C[C@H]2CCCN3CCC[C@@H](C23)C1CCCC(=O)O (stereo partly drawn) . Reported melting point: 127.4 to 129.6 °C

Record O=C(O)CCCC1NCC2CCCN3CCCC1C23 (stereo not drawn) . Reported melting point: 185.7 to 187.7 °C

* * *

System: 2.2.15 cells
EXPERIMENTAL_PROTOCOL: Drug TC50 by MTT detection
Format: cell-based
CONDITIONS_USED: Reed-Muench
# reported CC50 (concentration to cause poisoning in half cells); entries follow
Record the value in µg/mL, omitting the unit from your answer.

Examples with their reported CC50 (concentration to cause poisoning in half cells) follow.
COMPOUND | UNIT_NAME | TEST_VALUE
O=C(O)CCCC1C2CCCN3CCCC(CN1Cc1ccccc1Cl)C23 (centres unmarked) | µg/mL | 504.6
O=C(O)CCC[C@@H]1[C@H]2CCCN3CCC[C@@H](CN1Cc1ccc(OC(F)(F)F)cc1)[C@@H]23 | µg/mL | 431.6
O=C(O)CCCC1C2CCCN3CCCC(CN1Cc1cccc(F)c1)C23 (centres unmarked) | µg/mL | 527.8
O=C(O)CCC[C@@H]1[C@H]2CCCN3CCC[C@@H](CN1Cc1ccc([N+](=O)[O-])cc1)[C@@H]23 | µg/mL | 455.7
O=C(O)CCCC1C2CCCN3CCCC(CN1Cc1cccc(Cl)c1Cl)C23 (centres unmarked) | µg/mL | 245.5

Record O=C(O)CCCC1C2CCCN3CCCC(CN1Cc1ccc(F)cc1)C23 (centres unmarked) . Reported CC50 (concentration to cause poisoning in half cells): 903.2

Record O=C(O)CCCC1C2CCCN3CCCC(CN1Cc1cccc([N+](=O)[O-])c1)C23 (centres unmarked) . Reported CC50 (concentration to cause poisoning in half cells): 471.59

Record O=C(O)C=CCC1C2CCCN3CCCC(CN1S(=O)(=O)c1ccc(C(F)(F)F)cc1)C23 (centres unmarked) [SC-84a] . Reported CC50 (concentration to cause poisoning in half cells): 530.07

Record `O=C(O)CCC[C@@H]1[C@H]2CCCN3CCC[C@@H](CN1Cc1ccc(Cl)c(Cl)c1)[C@@H]23` . Reported CC50 (concentration to cause poisoning in half cells): 427.8

* * *

Tested on: Hsc70
EXPERIMENTAL_PROTOCOL: Detection of Hsc70 gene expression level upon action of compound on 2.2.15 cells (real-time fluorescent quantified PCR)
Type: cell-based
Set-up: unit not given here
CONDITIONS_USED: single value, concentration not given; values coincide with Table 1 relative OMT ratios
READOUT_NAME: Hsc70 down-regulation rate (%)
API note: the answer field is a bare number with no unit suffix.

Examples with their reported Hsc70 down-regulation rate (%) follow.
COMPOUND | READOUT_NAME | TEST_VALUE
O=C(O)CCCC1C2CCCN3CCCC(CN1Cc1cccc(Cl)c1)C23 (stereo not drawn) | Hsc70 down-regulation rate (%) | −67.97
O=C(O)CCCC1C2CCCN3CCCC(CN1Cc1ccccn1)C23 (stereo not drawn) | Hsc70 down-regulation rate (%) | 1.1

Next, consider the following compound.
Record `N#Cc1ccc(CN2C[C@@H]3CCCN4CCC[C@@H]([C@H]34)[C@H]2CCCC(=O)O)cc1` . Reported Hsc70 down-regulation rate (%): 0.57

* * *

System: HCV
EXPERIMENTAL_PROTOCOL: Inhibition effects of compounds on HCV in Huh7.5 cultured cell after HCV infection
Format: cell-based
CONDITIONS_USED: 400 ug/ml (lower data)
READOUT_NAME: HCV inhibition rate (%)
Record the value in %, omitting the unit from your answer.

Examples with their reported HCV inhibition rate (%) follow.
COMPOUND | HCV inhibition rate (%)
COc1ccc(C(=O)N2CC3CCCN4CCCC(C34)C2CCCC(=O)O)cc1 (stereo not drawn) [DM-151, N-(4-methoxybenzoyl) matrinic acid] | 53.4
O=C(O)CCC[C@@H]1[C@H]2CCCN3CCC[C@@H](CN1C(=O)c1cccc([N+](=O)[O-])c1)[C@@H]23 [DM-121, N-(3-nitrobenzoyl) matrinic acid] | 14.9
O=C(O)CCC[C@@H]1[C@H]2CCCN3CCC[C@@H](CN1Cc1ccccc1F)[C@@H]23 [DM-135, N-(2-fluorobenzyl)matrinic acid] | 90.5
COc1ccc(C(=O)N2CC3CCCN4CCCC(C34)C2CCCC(=O)O)cc1 [Compound L11, (5R)—N-(p-methoxybenzoyl)matrinic acid] | 61.6
O=C(O)CCC[C@@H]1[C@H]2CCCN3CCC[C@@H](CN1Cc1ccc([N+](=O)[O-])cc1)[C@@H]23 [DM-123, N-(4-nitrobenzyl) matrinic acid] | 81.1
Cc1ccc(CN2CC3CCCN4CCCC(C2CCCC(=O)O)C34)cc1 (stereo not drawn) [DM-140, N-(4-methylbenzyl) matrinic acid] | 96.0
COc1ccc(CN2CC3CCCN4CCCC(C2CCCC(=O)O)C34)cc1 (stereo not drawn) [DM-122, N-(4-methoxybenzyl) matrinic acid] | 88.0
O=C(O)CCCC1C2CCCN3CCCC(CN1C(=O)c1cccc([N+](=O)[O-])c1)C23 [Compound L9, (5R)—N-(3-nitrobenzoyl)matrinic acid] | 68.9

Form field HCV inhibition rate (%) for item Cc1cccc(CN2CC3CCCN4CCCC(C2CCCC(=O)O)C34)c1 (stereo not drawn) [DM-139, N-(3-methylbenzyl) matrinic acid] on HCV: 98.1

Form field HCV inhibition rate (%) for item O=C(O)CCC[C@@H]1[C@H]2CCCN3CCC[C@@H](CN1Cc1ccc(OC(F)(F)F)cc1)[C@@H]23 [DM-162] on HCV: 99.1

Form field HCV inhibition rate (%) for item COc1ccc(S(=O)(=O)N2CC3CCCN4CCCC(C34)C2CCCC(=O)O)cc1 (stereo not drawn) [DM-103] on HCV: 91.4

Form field HCV inhibition rate (%) for item Cc1ccc(C(=O)N2C[C@@H]3CCCN4CCC[C@@H]([C@H]34)[C@H]2CCCC(=O)O)cc1 [DM-153, N-(4-methylbenzoyl) matrinic acid] on HCV: 29.2

Form field HCV inhibition rate (%) for item Cc1ccc(C(=O)N2CC3CCCN4CCCC(C34)C2CCCC(=O)O)cc1 [Compound L7, (5R)—N-(p-methylbenzoyl)matrinic acid] on HCV: 95.7

Form field HCV inhibition rate (%) for item Cc1ccc([N+](=O)[O-])cc1C(=O)N1C[C@H]2CCCN3CCC[C@@H]([C@H]23)[C@H]1CCCC(=O)O [Compound L2] on HCV: 5.3

Form field HCV inhibition rate (%) for item Cc1ccccc1CN1CC2CCCN3CCCC(C1CCCC(=O)O)C23 (stereo not drawn) [DM-138, N-(2-methylbenzyl) matrinic acid] on HCV: 95.1

Form field HCV inhibition rate (%) for item O=C(O)CCCC1C2CCCN3CCCC(CN1Cc1ccc(F)cc1)C23 (stereo not drawn) [DM-132, N-(4-fluorobenzyl) matrinic acid] on HCV: 82.7

Form field HCV inhibition rate (%) for item O=C(O)CCCC1C2CCCN3CCCC(CN1Cc1cccc([N+](=O)[O-])c1)C23 (stereo not drawn) [DM-137, N-(3-nitrobenzyl) matrinic acid] on HCV: 99.7

Form field HCV inhibition rate (%) for item O=C(O)CCCC1C2CCCN3CCCC(CN1Cc1cccc(F)c1)C23 (stereo not drawn) [DM-133, N-(3-fluorobenzyl) matrinic acid] on HCV: 98.6

From: patent US20130190345A1
